# Tested on: SARS-CoV-2
# Assay Procedure: microbe, parasite or virus in culture
# Assay type: functional, organism-based, Chlorocebus sabaeus, Vero C1008
# Cond: Severe acute respiratory syndrome coronavirus 2, Vero C1008, 48 h
Endpoint Name: log10(IC50) (log10 of the value in µM)

>  <Compound>
Cc1c(CN2CCN(C(=O)[C@H](C)O)CC2)sc2c(N3CCOCC3)nc(-c3cnc(N)nc3)nc12

>  <log10(IC50)>
0.36

$$$$
>  <Compound>
CC(C)[C@H]1c2ccc(F)cc2CC[C@@]1(CCN(C)CCCc1nc2ccccc2[nH]1)OC(=O)C1CC1

>  <log10(IC50)>
0.91

$$$$
>  <Compound>
CN1CCN(C2CCN(C(=O)Nc3cc(Oc4ccc(NC(=O)C5(C(=O)Nc6ccc(F)cc6)CC5)c(F)c4)ccn3)CC2)CC1

>  <log10(IC50)>
0.77

$$$$
>  <Compound>
CC(C)(C)C(=O)/C(=C/c1cccc([N+](=O)[O-])c1)n1cncn1

>  <log10(IC50)>
0.64

$$$$
>  <Compound>
COC(=O)c1ccccc1-c1c2ccc(=N)cc-2oc2cc(N)ccc12

>  <log10(IC50)>
-0.10

$$$$
>  <Compound>
CC[C@H](CC#N)OC(=O)N[C@@H](C)c1cccc(NC(=O)Nc2ccc(-c3cnco3)c(OC)c2)c1

>  <log10(IC50)>
0.06

$$$$
>  <Compound>
Cc1ccc(Nc2ncc3c(n2)N(C)C(=O)N(c2cc(NC(=O)c4cccc(C(F)(F)F)c4)ccc2C)C3)cn1

>  <log10(IC50)>
0.72

$$$$
>  <Compound>
Cc1c(O)cccc1C(=O)NC(CSc1ccccc1)C(O)CN1CC2CCCCC2CC1C(=O)NC(C)(C)C (stereo not drawn)

>  <log10(IC50)>
1.16

$$$$
>  <Compound>
COc1ccc(-c2c[nH]c3nccc(-c4ccsc4)c23)c(OC)c1

>  <log10(IC50)>
1.20

$$$$

###

# Assay Procedure: in vitro
# Cond: chlorocebus sabaeus, VERO-E6 cells (Vero C1008), uninfected, CC50
# label 1 = CC50 at 48 h below 0.6 µM (exclusive); label 0 = CC50 at 48 h at/above 0.6 µM

>  <Molecule>
COC(=O)c1ccccc1-c1c2ccc(=N)cc-2oc2cc(N)ccc12

>  <Assigned Category>
label 0

$$$$
>  <Molecule>
CC1=C(/C=C/C(C)=C/C=C/C(C)=C/C(=O)Nc2ccc(O)cc2)C(C)(C)CCC1 [FENRETINIDE]

>  <Assigned Category>
label 0

$$$$
>  <Molecule>
CC(C)C[C@H](NC(=O)[C@@H](NC(=O)c1cccc(-c2ccccc2)n1)[C@@H](C)O)B(O)O

>  <Assigned Category>
label 1

$$$$
>  <Molecule>
O=C(O)c1ccc(N2C(=O)/C(=C/c3ccc(-c4ccc([N+](=O)[O-])cc4)o3)C=C2c2ccccc2)cc1

>  <Assigned Category>
label 0

$$$$
>  <Molecule>
O=C(O)Cc1cccc(OCCCN(Cc2cccc(C(F)(F)F)c2Cl)CC(c2ccccc2)c2ccccc2)c1

>  <Assigned Category>
label 0

$$$$
>  <Molecule>
CC(C)N1CCN(c2ccc(C(=O)c3c(-c4ccc(O)cc4)sc4cc(O)ccc34)cc2)CC1

>  <Assigned Category>
label 0

$$$$
>  <Molecule>
O=c1cc(N2CCOCC2)oc2c(-c3cccc4c3sc3ccccc34)cccc12

>  <Assigned Category>
label 1

$$$$
>  <Molecule>
CCN(CC)CCOc1ccc2c(c1)C(=O)c1cc(OCCN(CC)CC)ccc1-2

>  <Assigned Category>
label 0

$$$$
>  <Molecule>
Cc1cc([N+](=O)[O-])ccc1NS(=O)(=O)c1cc(Cl)ccc1Cl

>  <Assigned Category>
label 0

$$$$
>  <Molecule>
Nc1ccc2cc3ccc(N)cc3nc2c1

>  <Assigned Category>
label 0

$$$$
>  <Molecule>
COC(=O)C[C@@](O)(CCC(C)(C)O)C(=O)O[C@@H]1C(OC)=C[C@]23CCCN2CCc2cc4c(cc2[C@@H]13)OCO4

>  <Assigned Category>
label 0

$$$$
>  <Molecule>
Cc1cccc(Nc2nc(-c3ccncc3)cs2)c1

>  <Assigned Category>
label 0

$$$$
>  <Molecule>
C=CC(=O)N1CCC(Oc2cc3c(Nc4ccc(Cl)c(Cl)c4F)ncnc3cc2OC)CC1

>  <Assigned Category>
label 0

$$$$
>  <Molecule>
CC(=O)[C@]1(N)Cc2c(O)c3c(c(O)c2[C@@H](O[C@H]2C[C@H](O)[C@H](O)CO2)C1)C(=O)c1ccccc1C3=O

>  <Assigned Category>
label 0

$$$$
>  <Molecule>
Nc1ccc(C(=O)Nc2cccc(-c3nc(N4CCOCC4)c4oc5ncccc5c4n3)c2)cn1

>  <Assigned Category>
label 1

$$$$
>  <Molecule>
Cc1cc(O[C@@H](CCC(F)(F)F)c2ccc(C(=O)NCCC(=O)O)cc2)cc(C)c1-c1ccc(C(C)(C)C)cc1

>  <Assigned Category>
label 0

$$$$
>  <Molecule>
Cc1ccc(NC(=O)c2ccc(CN3CCN(C)CC3)cc2)cc1Nc1nc(-c2cccnc2)cs1

>  <Assigned Category>
label 0

$$$$
>  <Molecule>
Cc1c(O)cccc1C(=O)NC(CSc1ccccc1)C(O)CN1CC2CCCCC2CC1C(=O)NC(C)(C)C (stereo not given)

>  <Assigned Category>
label 0

$$$$
>  <Molecule>
O=C(NCCN1CCC2(CC1)C(=O)NCN2c1cccc(F)c1)c1ccc2ccccc2c1

>  <Assigned Category>
label 0

$$$$
>  <Molecule>
Cc1cc(O)c2c(=O)c3c(O)cc(O)c4c5c(O)cc(O)c6c(=O)c7c(O)cc(C)c8c1c2c(c34)c(c78)c65

>  <Assigned Category>
label 0

$$$$
>  <Molecule>
N[C@H]1CC[C@H](N[C@@H]2C[C@H]2c2ccccc2)CC1

>  <Assigned Category>
label 0

$$$$
>  <Molecule>
Cc1ccc(C(=O)Nc2cccc(C(F)(F)F)c2)cc1Nc1nc(-c2cccnc2)nc2c1cnn2C

>  <Assigned Category>
label 1

$$$$
>  <Molecule>
CC(C)(C)c1ccccc1Oc1ncccc1NC(=O)Nc1ccc(OC(F)(F)F)cc1

>  <Assigned Category>
label 0

$$$$
>  <Molecule>
Nc1nc(NC[C@H]2CC[C@H](CNS(=O)(=O)c3cccc4ccccc34)CC2)nc2ccccc12 [CGP-71683A]

>  <Assigned Category>
label 0

$$$$
>  <Molecule>
Nc1nccc2c1ncn2[C@@H]1C=C(CO)[C@@H](O)[C@H]1O

>  <Assigned Category>
label 1

$$$$
>  <Molecule>
Nc1cc2c3ccccc3ccc2c2ccccc12

>  <Assigned Category>
label 0

$$$$
>  <Molecule>
COCCNCc1ccc(-c2cc3nccc(Oc4ccc(NC(=S)NC(=O)Cc5ccc(F)cc5)cc4F)c3s2)nc1

>  <Assigned Category>
label 0

$$$$
>  <Molecule>
Nc1c(C(=O)NCc2ccco2)c2nc3ccccc3nc2n1CCN1CCCCC1

>  <Assigned Category>
label 0

$$$$
>  <Molecule>
O=C1OC2(c3ccc(O)cc3Oc3cc(O)ccc32)c2ccccc21

>  <Assigned Category>
label 0

$$$$
>  <Molecule>
Cc1c(CN2CCN(C(=O)[C@H](C)O)CC2)sc2c(N3CCOCC3)nc(-c3cnc(N)nc3)nc12

>  <Assigned Category>
label 1

$$$$
>  <Molecule>
O=C(Nc1ccc(Cl)c(Cl)c1)Nc1ccc(Cl)c(Cl)c1

>  <Assigned Category>
label 0

$$$$
>  <Molecule>
CCCCN(CCCC)CCC(O)c1cc2c(Cl)cc(Cl)cc2c2cc(C(F)(F)F)ccc12 (stereo not given)

>  <Assigned Category>
label 0

$$$$
>  <Molecule>
Nc1nc2nn[nH]c2c(=O)[nH]1

>  <Assigned Category>
label 0

$$$$
>  <Molecule>
Cc1ncc(NC(=O)c2ccc(CN3CCN(C)CC3)c(C(F)(F)F)c2)cc1Nc1nccc(-c2cccnc2)n1

>  <Assigned Category>
label 0

$$$$
>  <Molecule>
c1ccc(-c2ccc(CNc3nc(-c4ccccn4)nnc3-c3ccccc3)cc2)cc1

>  <Assigned Category>
label 1

$$$$
